B1: LINE1-full (parent)
chain: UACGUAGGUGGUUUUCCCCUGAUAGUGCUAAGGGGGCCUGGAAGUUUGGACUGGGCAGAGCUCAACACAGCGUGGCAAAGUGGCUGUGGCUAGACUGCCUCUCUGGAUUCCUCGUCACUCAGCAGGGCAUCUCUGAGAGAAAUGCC

- Variants of: B1
- procedure.details: self-cleavage, relative activity (ratio to wild type); higher = more cleavage; in vitro, sequencing; the parent is a self-cleaving ribozyme
measured.parameter: self-cleavage

[[record]]
mutant_designation = "A65U U96A"
observed = 0

[[record]]
mutant_designation = "A50G G97A"
observed = 0.06

[[record]]
mutant_designation = "G55A U102C"
observed = 0.17

[[record]]
mutant_designation = "U12A U62A"
observed = 0.05

[[record]]
mutant_designation = "A140U A142G"
observed = 1.73

[[record]]
mutant_designation = "U130C U134A"
observed = 1

[[record]]
mutant_designation = "G74A A140U"
observed = 1.31

[[record]]
mutant_designation = "A69G C113U"
observed = 0.41

[[record]]
mutant_designation = "U14G A141G"
observed = 0.89

[[record]]
mutant_designation = "U15G A50C"
observed = 1.37

[[record]]
mutant_designation = "A6G G122A"
observed = 0.55

[[record]]
mutant_designation = "U47A A77C"
observed = 1.6

[[record]]
mutant_designation = "G44A U46A"
observed = 0.79

[[record]]
mutant_designation = "A64G U143C"
observed = 0.26

[[record]]
mutant_designation = "U29C U100A"
observed = 1.42

[[record]]
mutant_designation = "U112A A136U"
observed = 1.67

[[record]]
mutant_designation = "U85C U132G"
observed = 0.28

[[record]]
mutant_designation = "C118U A141U"
observed = 1.6

[[record]]
mutant_designation = "U119C U132C"
observed = 2.32

[[record]]
mutant_designation = "C28U C123U"
observed = 1.03

[[record]]
mutant_designation = "G114A A136G"
observed = 1.28

[[record]]
mutant_designation = "A22G U134C"
observed = 0.96

[[record]]
mutant_designation = "U134A A138U"
observed = 1.72

[[record]]
mutant_designation = "U15C C146G"
observed = 1.45

[[record]]
mutant_designation = "U14C A129G"
observed = 1.02

[[record]]
mutant_designation = "A6U C145U"
observed = 0.48

[[record]]
mutant_designation = "U52C G125U"
observed = 1.15

[[record]]
mutant_designation = "A67U C99A"
observed = 0

[[record]]
mutant_designation = "G34A A107G"
observed = 2.74

[[record]]
mutant_designation = "U26C G74U"
observed = 1.42

[[record]]
mutant_designation = "U91C U143C"
observed = 0.78

[[record]]
mutant_designation = "A107G A117G"
observed = 1.85

[[record]]
mutant_designation = "A30U U39G"
observed = 1.46

[[record]]
mutant_designation = "U52C G53U"
observed = 1.6

[[record]]
mutant_designation = "A22U C38U"
observed = 1.18

[[record]]
mutant_designation = "U73C U81A"
observed = 2.36

[[record]]
mutant_designation = "A79G U119G"
observed = 1.31

[[record]]
mutant_designation = "A117G U119C"
observed = 1.47

[[record]]
mutant_designation = "U29C U130C"
observed = 1.52

[[record]]
mutant_designation = "U85C U112C"
observed = 0.18

[[record]]
mutant_designation = "U47A A57U"
observed = 0.08

[[record]]
mutant_designation = "U14C C28U"
observed = 0.8

[[record]]
mutant_designation = "C71G U112C"
observed = 0.37

[[record]]
mutant_designation = "U62C U112C"
observed = 0.05

[[record]]
mutant_designation = "U5C U39A"
observed = 0.91

[[record]]
mutant_designation = "A2G U85C"
observed = 0.48

